Attribution: PubChem BioAssay (NCI)

- Test system: EKVX NSCLC
- assay-summary: NCI tumour cell line growth inhibition, 48 h
For each record, write down the corresponding GI50.

stdin: # input molecule: c1cncc([O][Ge]([O]c2cccnc2)([O]c2cccnc2)[O]c2cccnc2)c1 ; wanted: its GI50
stdout: > 100 µM

stdin: GET /values?readout=GI50&item= COc1c(O)c2c3c(c1OC)-c1ccccc1CC3N(S(=O)(=O)c1ccc(C)cc1)CC2 (centres undefined)
stdout: 4.04 µM

stdin: Name the reported GI50 value associated with the molecule COc1cc2cc3c(c(O)c2c(O)c1-c1c(OC)cc2cc4c(c(O)c2c1O)C(=O)O[C@H](C)C4)C(=O)O[C@H](C)C3
stdout: 16.2 µM

stdin: State the recorded GI50 for this entry: Cn1ccnc1C(=O)/C=C/c1ccc(C(=O)Nc2c(F)c(F)c(F)c(F)c2F)cc1
stdout: 2.36 µM

stdin: Entry C#Cc1cccc(NC(=O)C2CCCN(C(=O)CCl)C2)c1 (centres undefined) : reported GI50 = ?
stdout: > 82.5 µM

stdin: Requested field: GI50. Item: OCC#Cc1ccccc1C#Cc1ccc(C#Cc2ccccc2)cc1
stdout: 25.2 µM

stdin: I have this molecule here, O=NN(CCCl)C(=O)NC1CCCCC1 , and I need its recorded GI50.
stdout: 92.3 µM

stdin: Query: GI50; subject: O=C(OC[C@@H]1CO1)c1cccc2c(=O)c3ccccc3[nH]c12
stdout: 0.856 µM

stdin: Sample C#CC#CC#CC#CC#CC#CC#CC#CC[C@@H]1OC[C@@H](COC(=O)O[C@@H](C(=O)O[C@H]2C[C@@]3(O)[C@@H](OC(=O)c4ccccc4)[C@@H]4[C@]5(OC(C)=O)CO[C@@H]5C[C@H](O)[C@@]4(C)C(=O)[C@H](OC(C)=O)C(=C2C)C3(C)C)[C@@H](NC(=O)c2ccccc2)c2ccccc2)O1 — what was its GI50?
stdout: 2.25 µM

stdin: Name the reported GI50 value associated with the molecule COc1ccc(OCC(O)CN2CCN(c3ccc(Cl)cc3)CC2)cc1 (centres undefined)
stdout: 9.82 µM

stdin: Dear colleague, I am looking for the recorded GI50 of the following molecule: NC(N)=N/N=C/c1c(-c2ccncc2)nc2sc(Cl)cn12
stdout: 21 µM

stdin: Please report the recorded GI50 for O=C(c1ccccc1)C(Br)C(Br)c1ccccc1 (centres undefined) .
stdout: 14.6 µM

stdin: So what's the measured GI50 for this one? COc1ccc(/C=C\c2cc(OC)c(OC)c(OC)c2)c(NS(=O)(=O)c2ccc(C(C)(C)C)cc2)c1O
stdout: 0.706 µM

stdin: Quick one: GI50 for C=CCN=C(N/N=C/c1ccc([N+](=O)[O-])o1)NS(=O)(=O)c1cc(C(=O)Nc2ccccc2)c(Cl)cc1SCC(N)=O ?
stdout: 22.9 µM

stdin: For CC1=C2[C@@H](CC1)[C@]1(C)O[C@@](C3CC3)(C[C@H]1OC(=O)CO)[C@H]2OC(=O)/C=C/c1ccccc1 , what is its reported GI50?
stdout: 11.5 µM

stdin: Field request: GI50 | item: CNCc1ccc(-c2[nH]c3cc(F)cc4c3c2CCNC4=O)cc1
stdout: 26.1 µM

stdin: Bench note: what GI50 did c1cncc(C2ONC3=NCCN32)c1 (centres undefined) show?
stdout: 23.2 µM

stdin: // GI50 lookup, key: COc1ccc(/C(C)=C(\c2ccc(Cl)cc2)c2ccc(OCCN3CCCCCC3)cc2)cc1F
stdout: 5.54 µM

stdin: # GI50 lookup, item COc1cc2c(cc1OCCCOc1ccc(-c3cc4ccccc4c4ccccc34)cc1)N=C[C@@H]1CCCN1C2=O
stdout: 1.1 µM
